All figures here come from patent US20210087159A1.

# Tested on: human peripheral blood mononuclear cells (PBMCs)
# procedureDetails: Cell proliferation of LPS-challenged PBMCs by CellTiter-Glo (CTG)
# Format: cell-based
# measurementSetup: compound 1 μM + 0.1 μg/mL LPS, human PBMCs, 72 h (LPS control 84.50)
assayEndpoint: CTG signal

chemicalSmiles | assayEndpoint | reportedMeasurement
C=C(C)[C@@H]1CCC(C)=C[C@H]1c1c(O)cc(CCCCC)c(C(=O)NCCCN2CCOCC2)c1O | CTG signal | 76.24 10^4
CCCCCc1cc2c(c(O)c1C(=O)S)[C@@H]1C=C(C)CC[C@H]1C(C)(C)O2 | CTG signal | 83.27 10^4
C=C(C)[C@@H]1CCC(C)=C[C@H]1c1c(O)cc(CCCCC)c(C(=O)NCCN2CCCC2)c1O | CTG signal | 81.90 10^4
CCCCCc1cc2c(c(O)c1-c1nnc(C)o1)[C@@H]1C=C(C)CC[C@H]1C(C)(C)O2 | CTG signal | 77.88 10^4
